Just for reference, PubChem BioAssay (EPA / NIEHS) is where these values come from.

Assay: TOX21_p53_BLA_p3_viability: Viability Assessment in the Tox21 HCT-116 p53 Agonism Beta-lactamase Assay, Phase 3 (AID 2283593);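 note: cells exposed to compound for 16 h before reading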
Results filed as inconclusive are left out. Activity calls are given as the source filed them. Rule for the calls: active = hit-call score of the fitted dose curve at least 0.9, where 1 is the maximum; inconclusive = response in the unintended direction; inactive = score below 0.9.
measurement-label: AC50

[[record]]
smiles_data = "CCCCCCCC[Si](OCC)(OCC)OCC"
obs_value = "inactive"

[[record]]
smiles_data = "O=C(Nc1ccc(Cl)cc1)Nc1ccc(Cl)c(Cl)c1"
obs_value = "inactive"

[[record]]
smiles_data = "Cc1cn([C@H]2C[C@H](N=[N+]=[N-])[C@@H](CO)O2)c(=O)[nH]c1=O"
obs_value = "inactive"

[[record]]
smiles_data = "CO[C@H]1/C=C/O[C@@]2(C)Oc3c(C)c(O)c4c(O)c(c(/C=N/N5CCN(C)CC5)c(O)c4c3C2=O)NC(=O)/C(C)=C\\C=C\\[C@H](C)[C@H](O)[C@@H](C)[C@@H](O)[C@@H](C)[C@H](OC(C)=O)[C@@H]1C"
obs_value = "inactive"

[[record]]
smiles_data = "O=C1CCC(C2CCCCC2)CC1"
obs_value = "inactive"

[[record]]
smiles_data = "Cc1cccc2ccccc12"
obs_value = "inactive"

[[record]]
smiles_data = "NC(=O)c1nc(-c2cccc(-c3cc(F)ccc3OCC(F)(F)C(F)(F)F)c2)n[nH]1"
obs_value = "74 µM (active)"

[[record]]
smiles_data = "COc1ccc2cc(S(=O)(=O)N[C@H](CC(=O)N[C@H](Cc3ccc(CN4[C@H](C)CCC[C@@H]4C)cc3)C(=O)N(C)C(C)C)c3ccc4c(c3)OCO4)ccc2c1"
obs_value = "84.8 µM (active)"

[[record]]
smiles_data = "c1ccc2n[nH]nc2c1"
obs_value = "inactive"

[[record]]
smiles_data = "CCO[Si](CCCNC(N)=O)(OCC)OCC"
obs_value = "inactive"


---

Read-out: Early growth response protein 1 (EGR1) transcription factor, EGR1 (gene 1958)
Assay: LTEA_HepaRG_EGR1: Life Technologies and Expression Analysis (LTEA) Assay for Early growth response protein 1 (EGR1) transcription factor using HepaRG (AID 2283490)
Conditions: mRNA level, 48 h; actives raise or lower the signal
The source made the active and inactive calls. How the source made its calls: active means hit-call score of the fitted dose curve at least 0.9, where 1 is the maximum; inactive means score below 0.9.
Outcome codes: true for active, false for inactive

[[record]]
molecule = "CCN(Cc1cccc(S(=O)(=O)O)c1)c1ccc(C(=C2C=CC(=[N+](CC)Cc3cccc(S(=O)(=O)O)c3)C=C2)c2ccccc2S(=O)(=O)[O-])cc1"
class_label = "false"

[[record]]
molecule = "C[C@]12CC[C@@H]3c4ccc(O)cc4CC[C@H]3[C@@H]1CC[C@H]2O"
class_label = "false"

[[record]]
molecule = "O=C(O)c1ccccc1-n1cc(C(=O)O)c(=O)c2cc(Nc3c(F)cc(F)cc3Cl)c(Cl)cc21"
class_label = "false"

[[record]]
molecule = "CCCCCCCC[Si](OCC)(OCC)OCC"
class_label = "false"

[[record]]
molecule = "CO[C@H]1/C=C/O[C@@]2(C)Oc3c(C)c(O)c4c(O)c(c(/C=N/N5CCN(C)CC5)c(O)c4c3C2=O)NC(=O)/C(C)=C\\C=C\\[C@H](C)[C@H](O)[C@@H](C)[C@@H](O)[C@@H](C)[C@H](OC(C)=O)[C@@H]1C"
class_label = "false"

[[record]]
molecule = "CN(C)c1ccc(C(=C2C=CC(=[N+](C)C)C=C2)c2ccc(N(C)C)cc2)cc1"
class_label = "true"

[[record]]
molecule = "CC1(C)NC(=O)N(c2ccc([N+](=O)[O-])c(C(F)(F)F)c2)C1=O"
class_label = "false"

[[record]]
molecule = "CCCCCCCCCC(=O)O"
class_label = "false"

[[record]]
molecule = "CCCCCCCCOC(=O)c1cc(O)c(O)c(O)c1"
class_label = "false"

[[record]]
molecule = "CCOC(=O)O[C@H](C)OC(=O)c1ccc2c(c1)cc(C(=O)NC1CCN(C(C)C)CC1)n2Cc1cc(-c2ccc(Cl)s2)on1"
class_label = "false"

[[record]]
molecule = "CC1=CC(=O)/C(=C(/C)O)C(=O)O1"
class_label = "false"

[[record]]
molecule = "Cc1ncc(CO)c(CO)c1O"
class_label = "false"

[[record]]
molecule = "COc1cc(C(=O)NC2CCN(C)CC2)ccc1Nc1ncc2c(n1)N(C1CCCC1)CC(F)(F)C(=O)N2C"
class_label = "true"

[[record]]
molecule = "COCC(C)OCC(C)OCC(C)O (stereo not given)"
class_label = "false"

[[record]]
molecule = "CCN(CC)C(=O)c1cc(S(=O)(=O)Cc2ccccc2)c(N2CCC(c3ccccc3)CC2)cc1N(CC)CCN(C)C"
class_label = "true"

[[record]]
molecule = "NC(=O)c1nc(-c2cccc(-c3cc(F)ccc3OCC(F)(F)C(F)(F)F)c2)n[nH]1"
class_label = "true"

[[record]]
molecule = "NCc1cccc(C2CCN(C(=O)c3ccc(C#Cc4ccccc4F)o3)CC2)c1"
class_label = "false"

[[record]]
molecule = "c1ccc2n[nH]nc2c1"
class_label = "false"

[[record]]
molecule = "Cc1ccc(C(C)C)cc1"
class_label = "false"

[[record]]
molecule = "O=c1c(-c2ccc(O)cc2)coc2cc(O)cc(O)c12"
class_label = "false"


---

Read-out: Cytochrome P450 4A22 (Homo sapiens) (UniProt Q5TCH4)
Test: LTEA_HepaRG_CYP4A22: Life Technologies and Expression Analysis (LTEA) Assay for Cytochrome P450 4A22 (CYP4A22) using HepaRG (AID 2283495)
Details: mRNA level, 48 h; actives raise or lower the signal
Experimental: LTEA_HepaRG is a cell based, multiplexed-readout assay that uses HepaRG, a human liver cell line, with measurements taken at 48 hours after chemical dosing on a 96-well plate.LTEA_HepaRG_CYP4A22 is one of 102 assay component(s) measured in the LTEA HepaRG cell culture assay. It is a marker of NR mediated metabolism.Data from the assay component LTEA_HepaRG_CYP4A22 was analyzed into 1 endpoint. […]
The source made the active and inactive calls. Rule for the calls: active = hit-call score of the fitted dose curve at least 0.9, where 1 is the maximum; inactive = score below 0.9.
Possible outcomes: TRUE = active, FALSE = inactive

[[record]]
compound = "O=C1O[C@H]([C@@H](O)CO)C(O)=C1O"
class_label = "FALSE"

[[record]]
compound = "COc1cc(C(=O)NC2CCN(C)CC2)ccc1Nc1ncc2c(n1)N(C1CCCC1)CC(F)(F)C(=O)N2C"
class_label = "TRUE"

[[record]]
compound = "COCC(C)OCC(C)OCC(C)O (configuration not stated)"
class_label = "FALSE"

[[record]]
compound = "O=C(O)Cn1c(=O)n(Cc2ccc(Br)cc2F)c(=O)c2ccc(Cl)cc21"
class_label = "FALSE"

[[record]]
compound = "Oc1ccccc1"
class_label = "FALSE"

[[record]]
compound = "O=c1ccc2ccccc2o1"
class_label = "FALSE"

[[record]]
compound = "O=CCCCC=O"
class_label = "FALSE"


---

Read-out: DNA damage-inducible transcript 3 (DDIT3), DDIT3 (gene 1649)
Experiment: LTEA_HepaRG_DDIT3: Life Technologies and Expression Analysis (LTEA) Assay for DNA damage-inducible transcript 3 (DDIT3) using HepaRG (AID 2283488)
Settings: mRNA level, 48 h; actives raise or lower the signal
Activity calls are given as the source filed them. How the source made its calls: active means hit-call score of the fitted dose curve at least 0.9, where 1 is the maximum; inactive means score below 0.9.
Outcomes: active, inactive

[[record]]
compound = "CN1C(=O)CC[C@H]1c1cccnc1"
class_label = "inactive"

[[record]]
compound = "OC12N=C(c3ccccc3)SC1Cc1cc(Cl)ccc12 (centres undefined)"
class_label = "active"

[[record]]
compound = "COc1cccc([C@H](O)C2CCN(CCc3ccc(F)cc3)CC2)c1OC"
class_label = "active"

[[record]]
compound = "c1ccc2n[nH]nc2c1"
class_label = "inactive"

[[record]]
compound = "CCCCCCCCCC(=O)O"
class_label = "inactive"

[[record]]
compound = "CCN(Cc1cccc(S(=O)(=O)O)c1)c1ccc(C(=C2C=CC(=[N+](CC)Cc3cccc(S(=O)(=O)O)c3)C=C2)c2ccccc2S(=O)(=O)[O-])cc1"
class_label = "inactive"

[[record]]
compound = "O=C(O)c1ccccc1-n1cc(C(=O)O)c(=O)c2cc(Nc3c(F)cc(F)cc3Cl)c(Cl)cc21"
class_label = "inactive"

[[record]]
compound = "CCCCCCCCCCCCO"
class_label = "inactive"

[[record]]
compound = "Clc1ccccc1C(c1ccccc1)(c1ccccc1)n1ccnc1"
class_label = "active"

[[record]]
compound = "CC[C@H](NC(=O)c1cc(F)ccc1NS(=O)(=O)c1cccc2cccnc12)c1ccccc1"
class_label = "active"

[[record]]
compound = "CC(C)(O)c1ccc(CNC(=O)c2cccnc2Oc2ccc3nonc3c2)cc1"
class_label = "inactive"

[[record]]
compound = "OCCO"
class_label = "inactive"

[[record]]
compound = "O=c1c(-c2ccc(O)cc2)coc2cc(O)cc(O)c12"
class_label = "inactive"

[[record]]
compound = "O=C1c2ccccc2C(=O)N1CCc1noc(-c2ccc(CN3CCCCCC3)s2)n1"
class_label = "inactive"

[[record]]
compound = "CCCCCCCCOc1ccc(C(=O)c2ccccc2)c(O)c1"
class_label = "inactive"

[[record]]
compound = "Cc1occc1C(=O)Nc1ccc(C(=O)N2CCC(F)(F)/C(=C\\C(=O)N3CCC(N4CCCCC4)CC3)c3ccccc32)cc1"
class_label = "active"

[[record]]
compound = "CC(O)CC(C)(C)O (centres undefined)"
class_label = "inactive"

[[record]]
compound = "CC1(C)NC(=O)N(c2ccc([N+](=O)[O-])c(C(F)(F)F)c2)C1=O"
class_label = "active"

[[record]]
compound = "O=C(OCCCCCCOC(=O)c1ccccc1)c1ccccc1"
class_label = "inactive"

[[record]]
compound = "O=C1O[C@H]([C@@H](O)CO)C(O)=C1O"
class_label = "inactive"

[[record]]
compound = "CC/C(=C(/CC)c1ccc(O)cc1)c1ccc(O)cc1"
class_label = "active"

[[record]]
compound = "Cc1ncc(CO)c(CO)c1O"
class_label = "inactive"

[[record]]
compound = "C[C@]12CC[C@@H]3c4ccc(O)cc4CC[C@H]3[C@@H]1CC[C@H]2O"
class_label = "inactive"

[[record]]
compound = "CC1=CC(=O)/C(=C(/C)O)C(=O)O1"
class_label = "inactive"

